# assay.details: Phase 1/2 clinical study, plasma pharmacokinetic evaluation
# Assay type: in vivo, human
# cond: human, plasma, oral, 200 mg, Cycle 1 Day 1; 200 mg BID Arm A (without azole); N=5; mean
measured.parameter: AUC(0-t) (ng·h/mL)
A number alone suffices; assume ng·h/mL.

So what does the record say about AUC(0-t) for C=C1C[C@@H]2CC[C@H]1[C@@H](C(=O)N1CCC3(CC1)CN(c1ncncc1Oc1ccc(F)cc1C(=O)N(C(C)C)C(C)C)C3)N2 [the present compound] ? 12100

###

# assay.details: Phase 1/2 clinical study, plasma pharmacokinetic evaluation
# Type: in vivo, human
# cond: human, plasma, oral, 140 mg, Cycle 1 Day 1; 140 mg BID Arm B (with azole); N=2; mean
measured.parameter: AUC(0-t) (ng·h/mL)
Express the result in ng·h/mL but write the number alone.

Which AUC(0-t) reading was recorded for the molecule C=C1C[C@@H]2CC[C@H]1[C@@H](C(=O)N1CCC3(CC1)CN(c1ncncc1Oc1ccc(F)cc1C(=O)N(C(C)C)C(C)C)C3)N2 [the present compound] ? 7000
